# system: T1, HER2 receptor on the surface of NCI-N87 cells (human, UniProt P04626 23-1255)
# T1 construct: whole, on cells; also called HER2 on tumor cell surface
# protocol: flow cytometry on NCI-N87 cells, PE-labelled secondary antibody
observed property: EC50 (µg/mL)
Give bare numbers, in µg/mL.

INSERT INTO results (binder, measurement_units, quantitative_readout) VALUES
  ('HER2 VHH-FC1 fusion protein 1-G07 (Fc fusion, 25; also called 1-G07-FC1; chimeric nanobody 1-G07) QVQLVESGGGKAQPGGSLRLSCVASRITFRHYDLSWYRQAPGQERELVATVTNGGVITYADSVKGRFTISRDNAKNTVQLQMNNLKPEDTAVYYCNAVWVYLQRLTQNKKENDYWGPGTQVTVSSEPKSSDKTHTCPPCPAPEFEGGPSVFLFPPKPKDTLMISRTPEVTCVVVDVSHEDPEVKFNWYVDGVEVHNAKTKPREEQYNSTYRVVSVLTVLHQDWLNGKEYKCKVSNKALPASIEKTISKAKGQPREPQVYTLPPSRDELTKNQVSLTCLVKGFYPSDIAVEWESNGQPENNYKTTPPVLDSDGSFFLYSKLTVDKSRWQQGNVFSCSVMHEALHNHYTQKSLSLSPGK', 'µg/mL', 0.199);

Let us examine a further case.
I have this binder here, HER2 VHH-FC1 fusion protein 1-C10 (Fc fusion, 25; also called 1-C10-FC1; chimeric nanobody 1-C10) QVQLVESGGDLVQPGGSLRLSCATSGLTFRRYELKWYRQAPGKERELVAGITPASGSRNYADSVKGRFTISRDDAKMTVYLQMNSLEPEDTAVYYCNAYWMIPQHIENNYWGKGTLVTVSSEPKSSDKTHTCPPCPAPEFEGGPSVFLFPPKPKDTLMISRTPEVTCVVVDVSHEDPEVKFNWYVDGVEVHNAKTKPREEQYNSTYRVVSVLTVLHQDWLNGKEYKCKVSNKALPASIEKTISKAKGQPREPQVYTLPPSRDELTKNQVSLTCLVKGFYPSDIAVEWESNGQPENNYKTTPPVLDSDGSFFLYSKLTVDKSRWQQGNVFSCSVMHEALHNHYTQKSLSLSPGK , and I need its recorded EC50.
0.209

The measured values listed here are drawn from patent US20260151496A1.
